# testSystem: Human recombinant DPP-IV (Homo sapiens)
# Sequence (P27487 whole entry): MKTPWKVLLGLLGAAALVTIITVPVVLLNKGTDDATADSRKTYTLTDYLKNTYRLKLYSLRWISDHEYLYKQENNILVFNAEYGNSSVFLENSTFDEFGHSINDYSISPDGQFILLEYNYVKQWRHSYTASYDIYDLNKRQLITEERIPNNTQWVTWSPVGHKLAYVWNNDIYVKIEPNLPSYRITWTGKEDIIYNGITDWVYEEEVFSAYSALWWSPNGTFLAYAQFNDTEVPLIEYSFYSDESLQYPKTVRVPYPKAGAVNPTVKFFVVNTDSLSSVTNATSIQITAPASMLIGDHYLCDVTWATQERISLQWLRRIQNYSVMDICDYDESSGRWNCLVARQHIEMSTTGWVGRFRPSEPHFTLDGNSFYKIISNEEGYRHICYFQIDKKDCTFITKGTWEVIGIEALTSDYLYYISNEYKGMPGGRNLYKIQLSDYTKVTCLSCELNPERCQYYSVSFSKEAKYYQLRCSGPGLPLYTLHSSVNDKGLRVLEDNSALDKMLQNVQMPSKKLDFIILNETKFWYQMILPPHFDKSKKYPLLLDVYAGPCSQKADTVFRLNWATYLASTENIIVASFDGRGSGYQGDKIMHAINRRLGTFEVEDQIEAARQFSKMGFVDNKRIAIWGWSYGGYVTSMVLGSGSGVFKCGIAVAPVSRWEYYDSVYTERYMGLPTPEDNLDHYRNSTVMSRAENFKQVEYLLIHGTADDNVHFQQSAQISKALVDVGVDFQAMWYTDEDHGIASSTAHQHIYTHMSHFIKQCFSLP
# method: Assay of Dipeptidyl Peptidase IV activity (hydrolysis of Ala-Pro-AFC, fluorometric)
# conditionSummary: human recombinant DPP-IV (expressed in insect Sf9 cells), 20 μM Ala-Pro-AFC, 15 min preincubation, 30 min at 37° C., pH 8.0
# Protocol: Assay of Dipeptidyl Peptidase IV Activity The inhibition of proteolytic activity of DPP-IV was assayed by following the hydrolysis of Ala-Pro-7-amino-4-trifluoromethylcoumarin (Ala-Pro-AFC) and fluorometric quantitation of the liberated AFC. […] The AFC liberated was measured in a spectrofluorometer with excitation and emission wavelengths set at 400 nm and 510 nm, respectively. Results are expressed as percent inhibition of enzyme activity. […]
quantityMeasured: IC50 (nM)

>  <compound>
N#C[C@@H]1C[C@H](F)CN1C(=O)CNC12CC3CC1CC(c1ccc(N4CCCC4=O)cc1)(C3)C2 (some centres unmarked)

>  <recordedNumber>
0.95

$$$$
>  <compound>
N#C[C@@H]1CCCN1C(=O)CNC12CC3CC1CC(c1ccc(N4CCCS4(=O)=O)cc1)(C3)C2 (some centres unmarked)

>  <recordedNumber>
20

$$$$
>  <compound>
N#C[C@@H]1CCCN1C(=O)CNC12CC3CC1CC(N)(C3)C2 (some centres unmarked)

>  <recordedNumber>
100

$$$$
>  <compound>
N#C[C@@H]1CCCN1C(=O)CNC12CC3CC1CC(Cn1cnnn1)(C3)C2 (some centres unmarked)

>  <recordedNumber>
11

$$$$
>  <compound>
N#C[C@@H]1CCCN1C(=O)CNC12CC3CC1CC(CN1CCSCC1)(C3)C2 (some centres unmarked)

>  <recordedNumber>
30

$$$$
>  <compound>
COC12CC3CC(C1)C(NCC(=O)N1CCC[C@H]1C#N)(C3)C2 (some centres unmarked)

>  <recordedNumber>
30

$$$$

A: N#C[C@@H]1CCCN1C(=O)CNC12CC3CC1CC(c1ccccc1)(C3)C2 (some centres unmarked)
B: N#C[C@@H]1C[C@H](F)CN1C(=O)CNC12CC3CC1CC(c1ccc(N4CCCS4(=O)=O)cc1)(C3)C2 (some centres unmarked)
Which entry has a larger number for IC50, A or B ? Your answer should be the label of the entry you select.
A
(A: 30 nM, B: 5 nM)

1: N#C[C@@H]1CCCN1C(=O)CNC12CC3CC1CC(CN1CCCS1(=O)=O)(C3)C2 (some centres unmarked)
2: N#C[C@@H]1CSCN1C(=O)CNC12CC3CC1CC(c1ccc(N4CCCS4(=O)=O)cc1)(C3)C2 (some centres unmarked)
Which entry has a larger number for IC50, 1 or 2 ? Your answer should be the label of the entry you select.
1
(1: 22 nM, 2: 6.4 nM)

A: N#C[C@@H]1CCCN1C(=O)CNC12CC3CC1CC(CN1C(=O)CSC1=O)(C3)C2 (some centres unmarked)
B: N#C[C@@H]1CCCN1C(=O)CNC12CC3CC1CC(Cn1cncn1)(C3)C2 (some centres unmarked)
C: N#C[C@@H]1CCCN1C(=O)CNC12CC3CC1CC(N1CCCC1=O)(C3)C2 (some centres unmarked)
Sort by IC50, descending. Reply format: the labels, ordered as requested.
A, C, B

P: N#C[C@@H]1CCCN1C(=O)CNC12CC3CC1CC(c1ccc(N4CCCC4=O)cc1)(C3)C2 (some centres unmarked)
Q: CN1CCN(c2ccc(C34CC5CC(C3)C(NCC(=O)N3CCC[C@H]3C#N)(C5)C4)cc2)C1=O (some centres unmarked)
Which has the smaller recorded IC50, P or Q ? Your answer should be the label of the entry you select.
P
(P: 4 nM, Q: 53.6 nM)
